- assay: Plasma Stability Assay (Example A3), rat plasma
- Format: in vitro ADME
- recorded_conditions: 10 μM, 37° C., prodrug remaining, 30 min
assay_endpoint: Prodrug (%)

1) COc1ccc([C@@]23CCC(OP(=O)(O)OCOC(=O)OC(C)C)=C[C@@H]2N(C)CC3)cc1OC; 25.4
2) COc1ccc([C@@]23CCC(OP(=O)(OC(C)C)OC(C)C)=C[C@@H]2N(C)CC3)cc1OC; 69.8
3) COc1ccc([C@@]23CCC(OP(=O)(O)OCOC(=O)C(C)C)=C[C@@H]2N(C)CC3)cc1OC; 29.2
4) COc1ccc([C@@]23CCC(OP(=O)(O)OCOC(=O)C(C)(C)C)=C[C@@H]2N(C)CC3)cc1OC; 81.2
5) COc1ccc([C@@]23CCC(OP4(=O)OCC(C)(C)CO4)=C[C@@H]2N(C)CC3)cc1OC; 95.5
